Molecular target: phosphor-EGFR in H1975(L585R/T790M) mutant EGFR expressing cells (Homo sapiens, UniProt P00533, L858R/T790M)
Sequence (P00533 25-1210 T790M/L858R): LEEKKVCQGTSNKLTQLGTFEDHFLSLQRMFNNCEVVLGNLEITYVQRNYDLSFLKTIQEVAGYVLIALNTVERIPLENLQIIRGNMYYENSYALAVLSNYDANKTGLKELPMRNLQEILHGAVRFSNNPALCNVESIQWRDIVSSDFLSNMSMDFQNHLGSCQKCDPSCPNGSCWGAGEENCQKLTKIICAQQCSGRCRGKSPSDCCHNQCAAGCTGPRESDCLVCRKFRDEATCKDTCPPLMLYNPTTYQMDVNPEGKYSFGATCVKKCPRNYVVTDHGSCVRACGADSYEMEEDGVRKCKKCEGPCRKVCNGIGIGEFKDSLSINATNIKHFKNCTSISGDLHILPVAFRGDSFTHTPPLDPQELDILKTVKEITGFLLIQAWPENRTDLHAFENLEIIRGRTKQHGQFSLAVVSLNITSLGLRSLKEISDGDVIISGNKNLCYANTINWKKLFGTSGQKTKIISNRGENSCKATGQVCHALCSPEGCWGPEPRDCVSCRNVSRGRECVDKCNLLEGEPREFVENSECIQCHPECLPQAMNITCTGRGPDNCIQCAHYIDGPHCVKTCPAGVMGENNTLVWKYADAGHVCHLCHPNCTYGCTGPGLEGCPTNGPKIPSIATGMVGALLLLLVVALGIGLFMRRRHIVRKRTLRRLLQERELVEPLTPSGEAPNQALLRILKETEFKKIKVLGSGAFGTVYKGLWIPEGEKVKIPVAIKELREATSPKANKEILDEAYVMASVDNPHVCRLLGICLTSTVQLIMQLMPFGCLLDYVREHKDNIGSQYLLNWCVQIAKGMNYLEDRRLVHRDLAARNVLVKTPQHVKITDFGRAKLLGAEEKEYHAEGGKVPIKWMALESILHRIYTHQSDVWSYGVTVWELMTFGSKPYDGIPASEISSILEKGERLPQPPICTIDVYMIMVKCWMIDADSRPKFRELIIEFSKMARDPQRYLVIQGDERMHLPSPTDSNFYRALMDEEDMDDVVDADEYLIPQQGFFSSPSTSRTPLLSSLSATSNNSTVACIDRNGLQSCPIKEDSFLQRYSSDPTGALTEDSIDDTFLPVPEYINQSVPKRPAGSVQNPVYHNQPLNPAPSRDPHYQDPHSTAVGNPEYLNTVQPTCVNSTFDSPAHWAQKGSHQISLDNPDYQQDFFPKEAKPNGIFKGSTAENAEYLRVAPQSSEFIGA
Assay: H1975 pEGFR MSD cellular assay
Conditions: NCI-H1975 cells, serum starved, 1 hour compound incubation, pEGFR Tyr1068 MSD; read-out: HI975 pEGFR EC50
Method: H1975 pEGFR MSD Cellular Assays These assays are intended for determining cellular. […] (Meso Scale Discovery Catalog# N31CB-1). […] The following day, test compounds are serially diluted in dimethyl sulfoxide (DMSO) and added to cells in serum free medium (final DMSO concentration 0.5%). […] The MSD Read Buffer is added such that when a voltage is applied to the plate electrodes, the labels bound to the electrode surface emit light. […]
metric: EC50 (nM)

// known answers, use as guide
CC(C)n1nc(N2CCCC2)c2cnc(Nc3ccnc(-c4cnn(CC5CC5)c4)n3)cc21 [Example 31]    116
C[C@@H](n1nc(N2CC[C@@H](O)C2)c2cnc(Nc3ccnc(N4CC[C@H](O)[C@H](F)C4)n3)cc21)C(F)(F)F (relative stereo) [Example 142]    110
CC(n1nc(N2CC[C@@H](O)C2)c2cnc(Nc3ccnc(N4CC[C@](C)(O)[C@H](F)C4)n3)cc21)C(F)(F)F (relative stereo) [Example 79]    165

P. CCS(=O)(=O)n1cc(-c2nccc(Nc3cc4c(cn3)c(NC3CCOC3)nn4C(C)C)n2)cn1 (centres unmarked) [Example 38]
Q. CCC(C)n1nc(N2CC3(COC3)C2)c2cnc(Nc3ccnc(-c4cnn(S(=O)(=O)C5CC5)c4)n3)cc21 (racemic) [Example 14]
Query string: Endpoint returns the identifier whose EC50 is numerically larger, either P or Q . Field: selected label. Fill in the label of the entry you choose.
Result string: P
(P: 40.8 nM, Q: 19.3 nM)

---

target: EGFR del746-750 T790M (Homo sapiens, UniProt P00533, DEL746-750/T790M); assay: EGFR del746-750 T790M biochemical assay (Caliper mobility shift); details: 5 μM ATP; apparent Ki (Morrison fit) converted by Cheng-Prusoff, Km of ATP 2.1 μM; read-out: EGFR(T790M/d746-750) Ki
pKi: −log10 of the molar value.
metric: pKi

CC(C)n1nc(N2CC[C@H](N)C2=O)c2cnc(Nc3ccnc(N4CCC(C)(O)CC4)n3)cc21 [Example 159]    7.55
CC(C)n1nc(N2CC(F)(F)C2)c2cnc(Nc3ccnc(-c4cnn(S(=O)(=O)C5CC5)c4)n3)cc21 [Example 154]    8.54

1. CC(C)n1nc(N2CCOCC2)c2cnc(Nc3ccnc(NCC(C)(C)S(C)(=O)=O)n3)cc21 [Example 100]
2. CCC(C)n1nc(N2CC[C@@H](O)C2)c2cnc(Nc3ccnc(N4CCC(C)(O)CC4)n3)cc21 (stereo partly shown) [Example 203]
Query string: Endpoint returns the identifier whose pKi is numerically larger, either 1 or 2 . Field: selected label. Fill in the label of the entry you choose.
Result string: 2

---

molecular target: EGFR T790M L858R (Homo sapiens, UniProt P00533, L858R/T790M); assay: EGFR T790M L858R biochemical assay (Caliper mobility shift); conditions: 5 μM ATP; apparent Ki (Morrison fit) converted by Cheng-Prusoff, Km of ATP 1.3 μM
Sequence (P00533 25-1210 T790M/L858R): as above
pKi: −log10 of the molar value.
metric: pKi

// known answers, use as guide
CC1CCC(C)N1c1nn(C(C)C)c2cc(Nc3ccnc(-c4cnn(S(=O)(=O)C5CC5)c4)n3)ncc12 (stereo not shown)    7.69
COC1CCN(c2nccc(Nc3cc4c(cn3)c(N3CC5(COC5)C3)nn4C(C)C)n2)CC1F (racemic)    8.96
CC(C)n1nc(N2CCC(C)(C(N)=O)C2)c2cnc(Nc3ccnc(N4CCC(C)(O)CC4)n3)cc21 (stereo not shown)    8.59
CC(C)n1nc(N2CC3(C2)CS(=O)(=O)C3)c2cnc(Nc3ccnc(N4CCC(C)(O)CC4)n3)cc21    8.29
CC(C)n1ncc2cnc(Nc3ccnc(N4CCC(O)C(C)(C)C4)n3)cc21 (stereo not shown)    8.12

P. CC(C)n1nc(N2CC(C(=O)NCC(F)(F)F)C2)c2cnc(Nc3ccnc(-c4cnn(S(=O)(=O)C5CC5)c4)n3)cc21
Q. CC(C)n1nc(NC(C)(C)C)c2cnc(Nc3ccnc(-c4cnn(S(=O)(=O)C5CC5)c4)n3)cc21
Query string: Consider entries P and Q . Which has the numerically lower pKi? Field: selected label. Fill in the label of the entry you choose.
Result string: Q
(Q: 6.89, P: 8.72)
